Data credit: ChEMBL document CHEMBL3352779

# Test system: MCF7
# TEST_METHOD_NOTES: Antiproliferative activity against human MCF7 cells after 48 hrs by SRB assay
# Assay type: functional
# MEASUREMENT_CONTEXT: MCF7, 48 h
Let's look at some compounds and their measured GI50.
Answer format: value, then unit.

COc1ccc(C2C3=C(COC3=O)Nc3c2c2cccnc2c2ncccc32)c(O)c1 (stereo not given) = 9.7 µM
COc1ccc(C2C3=C(COC3=O)Nc3c2c2cccnc2c2ncccc32)cc1 (stereo not given) = 4.6 µM
COc1cc(C2C3=C(COC3=O)Nc3c2c2cccnc2c2ncccc32)cc(OC)c1O (stereo not given) = 2.1 µM
COc1ccc(OC)c(C2C3=C(COC3=O)Nc3c2c2cccnc2c2ncccc32)c1 (stereo not given) = 8.4 µM

Now consider the entry below.
Any idea what GI50 was measured for O=C1OCC2=C1C(c1ccc(C(F)(F)F)cc1)c1c(c3cccnc3c3ncccc13)N2 (stereo not given) ?
0.06 µM

====

GI50: recorded values
# Tested on: MCF7
# TEST_METHOD_NOTES: Antiproliferative activity against human MCF7 cells after 48 hrs by SRB assay
# Type: functional
# MEASUREMENT_CONTEXT: MCF7, 48 h
Record the value in µM, omitting the unit from your answer.

Look over these answered cases.
Cc1cccc(C2C3=C(COC3=O)Nc3c2c2cccnc2c2ncccc32)c1O (configuration not stated) = 10.3
COc1ccc(F)c(C2C3=C(COC3=O)Nc3c2c2cccnc2c2ncccc32)c1 (configuration not stated) = 0.01
COc1cc([C@@H]2c3cc4c(cc3[C@@H](O[C@@H]3O[C@@H]5CO[C@@H](C)O[C@H]5[C@H](O)[C@H]3O)[C@H]3COC(=O)[C@H]23)OCO4)cc(OC)c1O [ETOPOSIDE] = 0.25
COc1cc(C2C3=C(COC3=O)Nc3c2c2cccnc2c2ncccc32)cc(OC)c1OC (configuration not stated) = 1.7
O=C1OCC2=C1C(c1ccc(O)c(Cl)c1)c1c(c3cccnc3c3ncccc13)N2 (configuration not stated) = 7.7
COc1ccc(C2C3=C(COC3=O)Nc3c2c2cccnc2c2ncccc32)cc1OC (configuration not stated) = 4.6

Moving on to another compound below.
# input compound: O=C1OCC2=C1C(c1cc(Br)ccc1O)c1c(c3cccnc3c3ncccc13)N2 (configuration not stated) ; wanted: its GI50
9.2

====

Measured GI50 by item
# System: MCF7
# TEST_METHOD_NOTES: Antiproliferative activity against human MCF7 cells after 48 hrs by SRB assay
# Type: functional
# MEASUREMENT_CONTEXT: MCF7, 48 h

Solved cases below.
O=C1OCC2=C1C(c1ccc(O)c(Br)c1)c1c(c3cccnc3c3ncccc13)N2 (stereo not given) = 7.6 µM
COc1ccc(C2C3=C(COC3=O)Nc3c2c2cccnc2c2ncccc32)cc1F (stereo not given) = 6.4 µM
COc1ccc(C2C3=C(COC3=O)Nc3c2c2cccnc2c2ncccc32)c(OC)c1OC (stereo not given) = 8.2 µM

GI50 of `COc1cc([C@@H]2c3cc4c(cc3[C@H](O)[C@H]3COC(=O)[C@H]23)OCO4)cc(OC)c1OC` on MCF7?
0.23 µM

Any idea what GI50 came out for O=C1OCC2=C1C(c1ccc(F)c(F)c1)c1c(c3cccnc3c3ncccc13)N2 (stereo not given) on MCF7?
< 0.01 µM
